System: HCT-116
Test: Growth inhibition of human HCT116 cells after 48 hrs by SRB protein assay
Assay type: functional
Settings: HCT-116, 48 h
endpointLabel: GI50

O=C(Cc1csc2nc(-c3ccc(Br)cc3)cn12)N/N=C/c1ccc(Cl)cc1Cl    17 µM
O=C(Cc1csc2nc(-c3ccc(Br)cc3)cn12)N/N=C/c1ccccc1    9.33 µM
Nc1nc2[nH]cnc2c(=S)[nH]1 [THIOGUANINE]    0.537 µM
O=C(Cc1csc2nc(-c3ccc(Br)cc3)cn12)N/N=C/c1ccccc1O    3.24 µM
COc1cccc(OC)c1/C=N/NC(=O)Cc1csc2nc(-c3ccc(Br)cc3)cn12    4.57 µM
O=C(Cc1csc2nc(-c3ccc(Br)cc3)cn12)N/N=C/c1ccc(O)cc1    10.5 µM

---

System: SN12C
Experiment: Growth inhibition of human SN12C cells after 48 hrs by SRB protein assay
Type: functional
Conditions: read-out: Log TGI (converted)
endpointLabel: TGI (µM)

O=C(Cc1csc2nc(-c3ccc(Br)cc3)cn12)N/N=C/c1ccccc1O    15.8
COc1cccc(OC)c1/C=N/NC(=O)Cc1csc2nc(-c3ccc(Br)cc3)cn12    49
Nc1nc2[nH]cnc2c(=S)[nH]1 [THIOGUANINE]    174
O=C(Cc1csc2nc(-c3ccc(Br)cc3)cn12)N/N=C/c1ccccc1    39.8
O=C(Cc1csc2nc(-c3ccc(Br)cc3)cn12)N/N=C/c1ccc(O)cc1    43.7

---

Test system: PC-3
Assay: Growth inhibition of human PC3 cells after 48 hrs by SRB protein assay
Type: functional
Settings: PC-3, 48 h
# Lookup of reported log10 of GI50 keyed by entry
endpointLabel: log10 of GI50 (log10 of the value in µM)

O=C(Cc1csc2nc(-c3ccc(Br)cc3)cn12)N/N=C/c1ccccc1O    0.63
COc1cccc(OC)c1/C=N/NC(=O)Cc1csc2nc(-c3ccc(Br)cc3)cn12    1.13
O=C(Cc1csc2nc(-c3ccc(Br)cc3)cn12)N/N=C/c1ccccc1    1.31
Nc1nc2[nH]cnc2c(=S)[nH]1 [THIOGUANINE]    0.25
O=C(Cc1csc2nc(-c3ccc(Br)cc3)cn12)N/N=C/c1ccc(Cl)cc1Cl    1.48

---

Test system: CCRF-CEM
Assay: Growth inhibition of human CCRF-CEM cells after 48 hrs by SRB protein assay
Type: functional
Settings: read-out: Log TGI (converted)
endpointLabel: TGI (µM)

Nc1nc2[nH]cnc2c(=S)[nH]1    25.7
O=C(Cc1csc2nc(-c3ccc(Br)cc3)cn12)N/N=C/c1ccc(O)cc1    79.4
O=C(Cc1csc2nc(-c3ccc(Br)cc3)cn12)N/N=C/c1ccccc1O    8.32

---

# Lookup of reported TGI keyed by entry
Tested on: HCC 2998
Test: Growth inhibition of human HCC2998 cells after 48 hrs by SRB protein assay
Format: functional
Settings: HCC 2998, 48 h, read-out: Log TGI (converted)
endpointLabel: TGI (µM)

O=C(Cc1csc2nc(-c3ccc(Br)cc3)cn12)N/N=C/c1ccccc1    49
Nc1nc2[nH]cnc2c(=S)[nH]1 [THIOGUANINE]    18.2
COc1cccc(OC)c1/C=N/NC(=O)Cc1csc2nc(-c3ccc(Br)cc3)cn12    34.7
O=C(Cc1csc2nc(-c3ccc(Br)cc3)cn12)N/N=C/c1ccc(O)cc1    29.5
O=C(Cc1csc2nc(-c3ccc(Br)cc3)cn12)N/N=C/c1ccccc1O    12.6
O=C(Cc1csc2nc(-c3ccc(Br)cc3)cn12)N/N=C/c1ccc(Cl)cc1Cl    44.7
